settings: in ethyl acetate, 283.15 K
observable: solubility (mole fraction)

> print(dat)
         test.smiles                  observable   result
1  O=C(O)CNCc1ccccc1  solubility (mole fraction)  1.1e-05

* * *

details: in methanol, 303.15 K
observable: solubility (mole fraction)

> print(dat)
         test.smiles   result
1  O=C(O)CNCc1ccccc1  0.00335

* * *

conditions: in n-butanol, 293.15 K
observable: solubility (mole fraction)

> print(dat)
         test.smiles                  observable    result
1  O=C(O)CNCc1ccccc1  solubility (mole fraction)  0.000203

* * *

conditions: in ethanol, 313.15 K
observable: solubility (mole fraction)

> print(dat)
         test.smiles    result
1  O=C(O)CNCc1ccccc1  0.000526

* * *

conditions: in n-butanol, 313.15 K
observable: solubility (mole fraction)

> print(dat)
         test.smiles                  observable    result
1  O=C(O)CNCc1ccccc1  solubility (mole fraction)  0.000338

* * *

details: in isopropanol, 293.15 K
observable: solubility (mole fraction)

> print(dat)
         test.smiles  result
1  O=C(O)CNCc1ccccc1   8e-05

* * *

settings: in water, 283.15 K
observable: solubility (mole fraction)

> print(dat)
         test.smiles                  observable   result
1  O=C(O)CNCc1ccccc1  solubility (mole fraction)  0.00909

* * *

settings: in dichloromethane, 283.15 K
observable: solubility (mole fraction)

> print(dat)
         test.smiles  result
1  O=C(O)CNCc1ccccc1   9e-06

* * *

conditions: in 1,4-dioxane, 313.15 K
observable: solubility (mole fraction)

> print(dat)
         test.smiles   result
1  O=C(O)CNCc1ccccc1  0.00015

* * *

conditions: in water, 323.15 K
observable: solubility (mole fraction)

> print(dat)
         test.smiles                  observable  result
1  O=C(O)CNCc1ccccc1  solubility (mole fraction)  0.0214

* * *

details: in isopropanol, 283.15 K
observable: solubility (mole fraction)

> print(dat)
         test.smiles                  observable  result
1  O=C(O)CNCc1ccccc1  solubility (mole fraction)   6e-05

* * *

details: in ethanol, 283.15 K
observable: solubility (mole fraction)

> print(dat)
         test.smiles    result
1  O=C(O)CNCc1ccccc1  0.000222

* * *

conditions: in n-butanol, 283.15 K
observable: solubility (mole fraction)

> print(dat)
         test.smiles    result
1  O=C(O)CNCc1ccccc1  0.000166

* * *

conditions: in acetonitrile, 323.15 K
observable: solubility (mole fraction)

> print(dat)
         test.smiles  result
1  O=C(O)CNCc1ccccc1   4e-05

* * *

conditions: in 1,4-dioxane, 323.15 K
observable: solubility (mole fraction)

> print(dat)
         test.smiles    result
1  O=C(O)CNCc1ccccc1  0.000211

* * *

settings: in 1,4-dioxane, 283.15 K
observable: solubility (mole fraction)

> print(dat)
         test.smiles   result
1  O=C(O)CNCc1ccccc1  3.3e-05

* * *

conditions: in methanol, 293.15 K
observable: solubility (mole fraction)

> print(dat)
         test.smiles   result
1  O=C(O)CNCc1ccccc1  0.00269
